# measuredOn: T1, mfGCGR-hFc (cynomolgus monkey (Macaca fascicularis))
# T1 construct: also called mfGCGR-N-terminal hFc
# methodNotes: SPR Biacore T100, 37C, mAb captured, antigen flowed
# Experimental: Measurements were conducted on a T100 Biacore instrument. […] Binding dissociation equilibrium constants and dissociative half-lives were calculated from the kinetic rate constants as: KD=kd/kₐ; t_{1/2}=(In2/kd).
measuredParameter: kon (M⁻¹ s⁻¹)
Entry rule: numbers only, all in M⁻¹ s⁻¹.

// below: answered binders
H4H1328P (antibody, V domains shown, Fully human anti-GCGR antibody; the controls are called isotype-matched hIgG4) VH: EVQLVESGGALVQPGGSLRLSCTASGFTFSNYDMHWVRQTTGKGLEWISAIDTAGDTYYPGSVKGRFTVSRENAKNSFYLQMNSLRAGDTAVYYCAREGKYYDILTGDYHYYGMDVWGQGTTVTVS VL: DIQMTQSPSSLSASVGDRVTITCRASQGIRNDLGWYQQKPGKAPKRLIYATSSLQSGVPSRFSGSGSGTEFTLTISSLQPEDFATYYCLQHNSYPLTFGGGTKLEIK    2.03e+06
H4H1321P (antibody, V domains shown, Fully human anti-GCGR antibody; the controls are called isotype-matched hIgG4) VH: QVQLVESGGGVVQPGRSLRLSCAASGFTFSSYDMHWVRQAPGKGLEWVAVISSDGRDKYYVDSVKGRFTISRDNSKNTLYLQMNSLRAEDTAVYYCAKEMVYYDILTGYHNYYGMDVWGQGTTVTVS VL: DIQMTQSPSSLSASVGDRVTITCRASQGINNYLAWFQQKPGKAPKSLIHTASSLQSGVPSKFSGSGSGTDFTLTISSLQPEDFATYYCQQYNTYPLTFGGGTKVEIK    2.19e+06
H4H1327P (antibody, V domains shown, also called anti-GCGR (hIgG4) antibody designated H4H1327P) VH: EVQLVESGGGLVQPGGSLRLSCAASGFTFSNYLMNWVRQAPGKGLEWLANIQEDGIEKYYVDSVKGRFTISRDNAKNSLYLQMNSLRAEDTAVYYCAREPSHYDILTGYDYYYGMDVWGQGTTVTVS VL: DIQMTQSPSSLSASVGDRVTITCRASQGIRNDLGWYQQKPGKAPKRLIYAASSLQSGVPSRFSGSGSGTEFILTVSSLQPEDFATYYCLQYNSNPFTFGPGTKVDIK    2.22e+06
H4H1331P (antibody, V domains shown, Fully human anti-GCGR antibody; the controls are called isotype-matched hIgG4) VH: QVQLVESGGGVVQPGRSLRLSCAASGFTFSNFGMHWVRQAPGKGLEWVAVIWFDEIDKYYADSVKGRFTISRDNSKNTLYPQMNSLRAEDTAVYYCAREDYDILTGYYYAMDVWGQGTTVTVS VL: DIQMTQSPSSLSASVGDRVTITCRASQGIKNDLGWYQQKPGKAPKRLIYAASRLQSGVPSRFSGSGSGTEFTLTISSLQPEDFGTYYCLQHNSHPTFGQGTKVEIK    1.6e+06
H4H1339P (antibody, V domains shown, Fully human anti-GCGR antibody; the controls are called isotype-matched hIgG4) VH: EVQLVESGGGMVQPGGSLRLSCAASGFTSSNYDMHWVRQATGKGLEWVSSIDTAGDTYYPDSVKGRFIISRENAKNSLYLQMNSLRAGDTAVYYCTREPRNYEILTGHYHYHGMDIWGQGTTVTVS VL: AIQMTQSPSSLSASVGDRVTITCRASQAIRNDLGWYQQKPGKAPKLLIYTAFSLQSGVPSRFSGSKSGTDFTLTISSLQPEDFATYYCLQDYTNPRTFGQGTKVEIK    1.69e+06

Now let's try a different one.
Give recorded kon. H4H1765N (antibody, V domains shown, Anti-GCGR antibody from hybridoma; the controls are called isotype-matched hIgG4) VH: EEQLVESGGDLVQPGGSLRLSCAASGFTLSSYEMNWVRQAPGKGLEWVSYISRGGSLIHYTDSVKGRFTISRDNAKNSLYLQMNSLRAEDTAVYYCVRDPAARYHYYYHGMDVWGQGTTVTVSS VL: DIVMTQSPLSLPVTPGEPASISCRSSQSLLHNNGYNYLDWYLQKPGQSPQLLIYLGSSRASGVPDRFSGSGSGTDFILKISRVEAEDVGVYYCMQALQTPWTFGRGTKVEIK 904000

Reference source: patent US20130251728A1
